- ASSAY EXPLANATION: Terminal half life in CD1 mouse at 10 mg/kg, iv
- Assay type: ADME, organism-based
- Set-up: dose 10 mg/kg, route intravenous
- STATED CONDITIONS: in vivo, read-out: beta t1/2 (converted)
MEASURED PARAMETER: half-life (h)
# value in h; strip the unit string

Ask: What half-life value was documented for this compound, CO[C@@H](C(=O)N1Cc2n[nH]c(NC(=O)c3ccc(N4CCN(C)CC4)cc3)c2C1)c1ccccc1 [DANUSERTIB] ?
Reply: 1.4

###

- Tested on: MCF7
- ASSAY EXPLANATION: Antiproliferative activity against MCF7 cells
- Assay type: functional, cell-based
- STATED CONDITIONS: Homo sapiens
MEASURED PARAMETER: IC50

Ask: What IC50 value was documented for this molecule, CO[C@@H](C(=O)N1Cc2[nH]nc(NC(=O)c3ccc(N4CCN(C)CC4)cc3)c2C1)c1ccccc1 ?
Reply: 80 nM

###

- SYSTEM UNDER TEST: Inhibitor of nuclear factor kappa-B kinase subunit beta (Homo sapiens)
- Sequence (O14920 whole entry): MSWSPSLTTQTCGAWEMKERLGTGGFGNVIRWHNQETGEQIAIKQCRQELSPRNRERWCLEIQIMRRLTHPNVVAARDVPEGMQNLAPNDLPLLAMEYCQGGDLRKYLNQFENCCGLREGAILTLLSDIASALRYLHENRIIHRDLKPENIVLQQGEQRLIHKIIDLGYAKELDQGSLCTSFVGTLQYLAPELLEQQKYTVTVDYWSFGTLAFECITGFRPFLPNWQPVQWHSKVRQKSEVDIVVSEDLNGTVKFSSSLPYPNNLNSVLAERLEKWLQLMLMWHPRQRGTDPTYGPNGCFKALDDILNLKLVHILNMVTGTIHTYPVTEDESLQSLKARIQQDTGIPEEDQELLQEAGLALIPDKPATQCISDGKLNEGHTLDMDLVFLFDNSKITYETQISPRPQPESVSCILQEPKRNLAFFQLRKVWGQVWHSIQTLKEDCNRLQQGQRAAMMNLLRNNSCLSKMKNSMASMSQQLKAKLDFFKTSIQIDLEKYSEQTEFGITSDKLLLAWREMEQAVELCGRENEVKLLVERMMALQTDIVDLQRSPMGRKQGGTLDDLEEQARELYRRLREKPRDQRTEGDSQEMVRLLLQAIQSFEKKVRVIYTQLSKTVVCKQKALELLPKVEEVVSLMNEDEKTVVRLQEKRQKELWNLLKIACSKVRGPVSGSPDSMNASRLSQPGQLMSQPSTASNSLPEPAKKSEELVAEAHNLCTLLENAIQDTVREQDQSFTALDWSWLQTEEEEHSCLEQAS
- ASSAY EXPLANATION: Inhibition of IKK2
MEASURED PARAMETER: IC50

Ask: What IC50 value was documented for this molecule, CO[C@@H](C(=O)N1Cc2n[nH]c(NC(=O)c3ccc(N4CCN(C)CC4)cc3)c2C1)c1ccccc1 ?
Reply: > 10 µM

###

- ASSAY EXPLANATION: Volume of distribution in CD1 mouse at 10 mg/kg, iv
- Format: ADME, organism-based
- Design: dose 10 mg/kg, route intravenous
- STATED CONDITIONS: in vivo, read-out: Vss
MEASURED PARAMETER: Vd
State the result as a value with its unit after it.

Ask: What Vd value was documented for this compound, CO[C@@H](C(=O)N1Cc2n[nH]c(NC(=O)c3ccc(N4CCN(C)CC4)cc3)c2C1)c1ccccc1 ?
Reply: 3.7 L/kg

Taken from ChEMBL document CHEMBL1137365.
